Each entry below carries its reported pEC50.
Biological target: Btk enzyme (His-Btk) (Homo sapiens (Human))
Sequence (Q06187 whole entry): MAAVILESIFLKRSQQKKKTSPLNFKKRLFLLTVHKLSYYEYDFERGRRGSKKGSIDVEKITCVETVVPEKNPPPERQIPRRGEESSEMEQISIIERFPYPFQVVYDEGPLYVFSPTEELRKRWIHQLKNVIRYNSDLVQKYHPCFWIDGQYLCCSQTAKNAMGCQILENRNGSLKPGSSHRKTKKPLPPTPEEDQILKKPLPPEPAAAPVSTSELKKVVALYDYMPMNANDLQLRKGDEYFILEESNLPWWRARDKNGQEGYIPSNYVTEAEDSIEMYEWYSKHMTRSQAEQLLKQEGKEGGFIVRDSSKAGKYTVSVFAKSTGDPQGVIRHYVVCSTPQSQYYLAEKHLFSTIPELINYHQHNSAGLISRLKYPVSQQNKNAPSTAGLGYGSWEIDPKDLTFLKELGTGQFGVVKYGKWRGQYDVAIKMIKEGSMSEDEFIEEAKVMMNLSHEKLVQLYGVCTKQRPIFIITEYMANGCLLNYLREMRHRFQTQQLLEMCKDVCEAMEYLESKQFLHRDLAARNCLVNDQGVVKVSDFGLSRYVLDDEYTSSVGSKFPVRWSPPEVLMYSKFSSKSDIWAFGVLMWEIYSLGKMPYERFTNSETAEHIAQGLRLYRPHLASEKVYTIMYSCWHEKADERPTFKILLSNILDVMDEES
Assay: Btk enzyme activity, IMAP fluorescence polarization assay (Assay Method A)
Conditions: read-out: EC50 Btk activity values - Assay Method A; IMAP-FP, 60 min pre-incubation, 5 μM ATP
pEC50: −log10 of the molar value. Where a name gives a salt, the structure may show the parent alone.
ASSAY READOUT: pEC50

INSERT INTO measurements (molecule, result) VALUES
  ('Nc1nccn2c1c(-c1ccc(C(=O)Nc3nc4c(s3)CNCC4)cc1)nc2[C@H]1CC[C@H](O)CC1', '≤ 6.00'),
  ('COCCC(=O)N1CCC[C@@H](c2nc(-c3ccc(C(=O)Nc4ccccn4)cc3C(F)(F)F)c3c(N)nccn23)C1 [Example 283, TFA salt]', '≤ 6.00');

----------
Molecular target: hBTK (full-length BTK, 6HIS-tag cleaved) (Homo sapiens (Human))
Sequence (Q06187 whole entry): as above
Test: BTK enzymatic activity, LANCE TR-FRET assay (Assay Method C)
Assay type: biochemical
Settings: LANCE TR-FRET, 50 pM hBTK, 25 μM ATP; class 100-1000 is given as ≧100 nM-<1 μM; read-out: IC50 Btk activity values - Assay Method C
pIC50: −log10 of the molar value. Counter-ions that a name gives are not always drawn.
ASSAY READOUT: pIC50

INSERT INTO results (compound, test_system, assay_readout, result) VALUES
  ('CC1(C(=O)N2CCC[C@@H](c3nc(-c4ccc(C(=O)Nc5cc(C(F)(F)F)ccn5)cc4)c4c(N)ncc(CO)n34)C2)COC1', 'hBTK (full-length BTK, 6HIS-tag cleaved) (Homo sapiens (Human))', 'pIC50', '> 8.00'),
  ('CO[C@H](C)c1cnc(N)c2c(-c3ccc(C(=O)Nc4cc(C(F)(F)F)ccn4)cc3)nc([C@@H]3CCCN(C(=O)C4(C)COC4)C3)n12', 'hBTK (full-length BTK, 6HIS-tag cleaved) (Homo sapiens (Human))', 'pIC50', '> 8.00'),
  ('Cn1ncc2c1CCC[C@@H]2n1nc(-c2ccc(C(=O)Nc3cc(C(F)(F)F)ccn3)cc2)c2c(N)ncnc21 [Example 553, TFA salt]', 'hBTK (full-length BTK, 6HIS-tag cleaved) (Homo sapiens (Human))', 'pIC50', '> 8.00');

----------
Molecular target: Btk enzyme (His-Btk) (Homo sapiens (Human))
Test: Btk enzyme activity, IMAP fluorescence polarization assay (Assay Method A)
Where a name gives a salt, the structure may show the parent alone.
ASSAY READOUT: EC50

INSERT INTO results (molecule, assay_readout, result) VALUES
  ('Nc1nccn2c(C3CC34CCN(C(=O)CO)CC4)nc(-c3ccc(C(=O)Nc4ccccn4)cc3)c12 (stereo not shown) [Example 152]', 'EC50', '100 to 1000 nM'),
  ('N#Cc1ccnc(NC(=O)c2ccc(-c3nc([C@@H]4CCCN(C(=O)C5CC5)C4)n4ccnc(N)c34)cc2)c1 [Example 98]', 'EC50', '< 10 nM'),
  ('Nc1nccn2c([C@@H]3CCCN(CC4CCCC4)C3)nc(-c3ccc(C(=O)Nc4cc(C5CC5)ccn4)cc3)c12 [Example 143, TFA salt]', 'EC50', '10 to 100 nM'),
  ('COC(=O)c1cnc(N)c2c(-c3ccc(C(=O)Nc4cc(C(F)(F)F)ccn4)cc3)nc(C)n12 [Example 312]', 'EC50', '10 to 100 nM');
